- TARGET OF ASSAY: Vitamin D3 receptor (Homo sapiens)
- ASSAY TEXT: Agonist activity at human VDR expressed in human HCT116 cells co-expressing VDRE assessed as XDR3 transcriptional activity at 20 to 40 uM after 24 hrs by luciferase reporter gene assay
- Assay type: cell-based
- DETAILS: HCT-116
Active and inactive are the calls of the source. No cut-off for these calls is given here.
Pick one and only one: T for active, F for inactive

Asked: Hi team, can someone confirm the assay call for "COc1cc(/C=C/C(=O)/C=C(O)/C=C/c2cc(Cl)c(O)c(OC)c2)cc(Cl)c1O" ?
Given back: T

Asked: Same question for "COc1cc(CCC(=O)/C=C(\O)CCc2cc(F)c(O)c(OC)c2)cc(F)c1O" please.
Given back: F

Asked: Same question for "O=C(/C=C(O)/C=C/c1ccc(O)c(Br)c1)/C=C/c1ccc(O)c(Br)c1" please.
Given back: T

Asked: Same question for "O=C(/C=C(O)/C=C/c1ccc(O)c(Cl)c1)/C=C/c1ccc(O)c(Cl)c1" please.
Given back: T

Asked: Same question for "O=C(/C=C(O)/C=C/c1ccc(O)cc1F)/C=C/c1ccc(O)cc1F" please.
Given back: F

Asked: Same question for "O=C(/C=C(O)/C=C/c1ccc(O)c(OC(F)(F)F)c1)/C=C/c1ccc(O)c(OC(F)(F)F)c1" please.
Given back: T

Asked: Same question for "COc1cc(/C=C/C(=O)/C=C(O)/C=C/c2cc(F)c(O)c(OC)c2)cc(F)c1O" please.
Given back: T

Asked: Same question for "COc1cc(/C=C/C(=O)/C=C(O)/C=C/c2cc(I)c(O)c(OC)c2)cc(I)c1O" please.
Given back: T

Asked: Same question for "COc1cc(CCC(=O)/C=C(\O)CCc2ccc(O)c(OC)c2)ccc1O" please.
Given back: T

Asked: Same question for "COc1cc(/C=C/C(=O)/C=C(O)/C=C/c2cc(Br)c(O)c(OC)c2)cc(Br)c1O" please.
Given back: T

Asked: Same question for "O=C(/C=C(\O)CCc1ccc(O)cc1F)CCc1ccc(O)cc1F" please.
Given back: F

---

- TARGET OF ASSAY: Vitamin D3 receptor (Homo sapiens, UniProt P11473)
- Sequence (P11473 whole entry): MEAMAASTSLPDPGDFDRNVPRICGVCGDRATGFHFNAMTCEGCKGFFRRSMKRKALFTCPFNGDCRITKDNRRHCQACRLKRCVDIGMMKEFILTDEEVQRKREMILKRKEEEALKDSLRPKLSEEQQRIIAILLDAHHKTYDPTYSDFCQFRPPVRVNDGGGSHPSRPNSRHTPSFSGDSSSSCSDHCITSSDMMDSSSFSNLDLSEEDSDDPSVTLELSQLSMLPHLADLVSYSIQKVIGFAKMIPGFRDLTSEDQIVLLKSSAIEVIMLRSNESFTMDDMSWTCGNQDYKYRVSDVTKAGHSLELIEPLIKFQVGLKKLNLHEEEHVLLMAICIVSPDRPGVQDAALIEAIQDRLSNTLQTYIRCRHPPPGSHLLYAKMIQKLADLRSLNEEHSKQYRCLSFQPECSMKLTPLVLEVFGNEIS
- ASSAY TEXT: Agonist activity at human VDR expressed in human HCT116 cells co-expressing VDRE assessed as XDR3 transcriptional activity after 24 hrs by luciferase reporter gene assay
PROPERTY LABEL: EC50 (µM)
The reply should be a number in µM, with the unit left off.

Asked: Under Vitamin D3 receptor (Homo sapiens, UniProt P11473): EC50 value of COc1cc(/C=C/C(=O)CC(=O)/C=C/c2ccc(O)c(OC)c2)ccc1O [CURCUMIN] ?
Given back: 20
